- measurement-notes: yeast display, Sf9 membrane polyspecificity reagent, FACS + sequencing; frameworks hold sequencing errors
readout-name: polyreactivity (PSR sort gate)

Record excerpt, results attached:
# construct-sequence, polyreactivity (PSR sort gate)
records = [
    ("QVQLVESGGGLVQAGGSLRLICAASGFIFKWNAMGWYRQAPGKERELVAAITSGGGTYYADSVKGRFTISRDNAKNTVYLQMNSLKPEDTAVYYCAALGRYWPARRFDYWGQGTQVTVSS", "high polyreactivity"),
    ("QVQLVESGGGLVQAGGSLRLSCAASGFIFPYDAMGWYRQAPGKERELVAAITYRDGSTYYADSVKGRFTISRDNAKNTVYLQMNSLKPEDTAVYYCAADRYVYWDLYGYWGQGTQVTVSS", "low polyreactivity"),
    ("QVQLVESGGGLVQAGGSLRLSCAASGLTFYYNAMGWYRQAPGKERELVAVIRGSGGSTYYADSVKGRFTISRDNAKNTVYLQMNSLKPEDTAVYYCAARVAASRRYYYWGQGTQVTVSS", "high polyreactivity"),
    ("QVQLVESGGGLVQAGGRLRLSCAASGRTFATNAMGWYRQAPGKERELVADISGGGSTYYADSVKGRFTISRDNAKNTVYLQMNSLKPEDTAVYYCAARDYHWFQWYDYWGQGTQVTVSS", "low polyreactivity"),
]

Here is another sequence to look at.
q: Data request, read-out polyreactivity (PSR sort gate), for `QVQLVESGGGLVQAGGSLRLSCAASGRTFSSYTMGWYRQAPGKERELVAAISWRGGSTYYADSVKGRFTISRDNAKYTVYLQMTSLKPEDTAVYYCNADVYSTYYNYNYWGQGTQVTVSS`
a: high polyreactivity

====

- measurement-notes: yeast display, Sf9 membrane polyspecificity reagent, FACS + sequencing; frameworks hold sequencing errors
readout-name: polyreactivity (PSR sort gate)

Record excerpt, results attached:
# construct-sequence, result
measured = [
    ("QVQLVESGGGLVQARGSLRLSCAASAFIIPVYTIGWYRQAPGKERELVAAITQIGGSTHYADSVKGRFTISRANAKNTVYLQMNSLKPEDTAVYYCAVDYDSYWYGTYVNEYDYWGLGTQVTVSS", "low polyreactivity"),
    ("QVQLVESGGGLVQAGGSLRLSCAGSGRIFYVYAMGWYRQAPGKERELVAAISRGGSTNYADSVKGRFTISRDNAKNTVYLQMNSLKPEDTAVYYCAASSLPHYSFRHSYLYEYWGQGTQVTVSS", "low polyreactivity"),
    ("QVQLVESGGGLEQAGGSLRISCAASGITFRWYAMGWYRQAPGKERELVAAISERGGSTYYADSVKGRFTISRDNAKNTVYLQMNSLKPEDTAVYYCAADSQHWQRWHGYWGQGTEVTVSS", "high polyreactivity"),
    ("QVQLVESGGGLVQAGGSLRLSCAASGRIFSVNAMGWYRQAPGKERELVAAITPGASTNYADSVKGRFTISRDNAKNTVYLQMNSLKPEDTAVYYCAAGWVSFEDWVLGSYYEYDYWGQGTQVTVSS", "low polyreactivity"),
]

Here is another sequence to look at.
q: Data request, read-out polyreactivity (PSR sort gate), for `QVQLVESGGGLVQAGGSLRLSCAASGRTFIYYDKGWYRQAPGKERDLVAAIRQRGDNTYYADSVKGSFTISRDNAKNTVYLKMKSLKPDDTAVYFCAAVNYLSYRYGYSWSYPGGGYWGQGTQVTVSS`
a: high polyreactivity
